Source of measurements: PubChem BioAssay AID588342

- Assayed system: Luciferin 4-monooxygenase (Photinus pyralis) (UniProt P08659)
- Sequence (P08659 whole entry, looked up): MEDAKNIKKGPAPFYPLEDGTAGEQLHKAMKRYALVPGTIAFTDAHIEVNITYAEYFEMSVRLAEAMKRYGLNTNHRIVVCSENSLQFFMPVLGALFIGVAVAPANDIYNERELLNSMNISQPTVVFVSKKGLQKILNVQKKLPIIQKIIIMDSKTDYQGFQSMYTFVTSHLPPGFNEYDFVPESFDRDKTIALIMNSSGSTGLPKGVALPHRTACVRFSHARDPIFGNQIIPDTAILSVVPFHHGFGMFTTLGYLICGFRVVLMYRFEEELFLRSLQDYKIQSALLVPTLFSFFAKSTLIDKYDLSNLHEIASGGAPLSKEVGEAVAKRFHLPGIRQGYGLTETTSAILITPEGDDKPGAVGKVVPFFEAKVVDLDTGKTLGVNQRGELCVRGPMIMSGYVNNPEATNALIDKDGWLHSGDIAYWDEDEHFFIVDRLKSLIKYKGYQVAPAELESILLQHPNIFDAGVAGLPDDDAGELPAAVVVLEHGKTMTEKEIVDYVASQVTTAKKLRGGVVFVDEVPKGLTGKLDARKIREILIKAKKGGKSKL
- Assay: qHTS profiling assay for firefly luciferase inhibitor/activator using purifed enzyme and Km concentrations of substrates (counterscreen for miR-21 project); further: nearly all actives have a fitted effect of over 55% in size
- Condition details: purified FLuc, luminescence inhibition; series mostly up to 57.5 µM
Among all 360,000 compounds or so, about 25,000 (6.9%) were called active. Roughly 9% stayed inconclusive and do not appear here. The call rests on the fitted dose curve; in most records, active means well fitted inhibition curve with a large enough effect; inconclusive means small, poorly fitted or top-dose-only effect; inactive means flat fitted curve, though single readings scatter. Only a selection was taken, and actives are over-represented in it overall.
Hi! Could you answer with just one of these? 1 = active, -1 = inactive

Solved cases below.
{"columns": ["Molecule", "Assayed system", "Label"],
 "data": [
  ["O=C(Nc1ccccc1-c1nc2ccccc2[nH]c1=O)c1cccs1", "Luciferin 4-monooxygenase (Photinus pyralis) (UniProt P08659)", -1],
  ["C/C(=N\\Nc1ncc(Cl)cc1Cl)c1cccs1", "Luciferin 4-monooxygenase (Photinus pyralis) (UniProt P08659)", 1],
  ["COc1ccc(/C(C)=N/Nc2cc(C(F)(F)F)ccc2Cl)c(OC)c1", "Luciferin 4-monooxygenase (Photinus pyralis) (UniProt P08659)", -1],
  ["Cc1c(Cl)cnc(NC(=O)COC(=O)c2ccc(S(=O)(=O)NCc3ccco3)cc2)c1Cl", "Luciferin 4-monooxygenase (Photinus pyralis) (UniProt P08659)", -1],
  ["C/C(=N\\Nc1ncc(Cl)cc1Cl)c1ccc(S(=O)(=O)NCc2ccco2)cc1", "Luciferin 4-monooxygenase (Photinus pyralis) (UniProt P08659)", 1]
]}

**Query** How was O=S(=O)(NCc1ccco1)c1cnc(Cl)c(Cl)c1 classified in this test?
**Result** -1

**Query** How was O=C(CCC1N=C2c3ccccc3N=C(SCc3ccccc3F)N2C1=O)NCCc1ccccc1 (stereo not given) classified in this test?
**Result** -1

**Query** How was COc1ccccc1CNC(=O)C(Cc1ccccc1)NS(=O)(=O)c1ccc2c(c1)oc(=O)n2C (stereo not given) classified in this test?
**Result** -1

**Query** How was CCCN1C(=O)C(Cc2nc3ccccc3c(=O)n2-c2ccccc2)c2cc(C)ccc21 (stereo not given) classified in this test?
**Result** -1

**Query** How was CCNS(=O)(=O)c1cc(-c2nnc(Nc3cccc(C(F)(F)F)c3)c3ccccc23)ccc1C classified in this test?
**Result** -1

---

- Assayed system: Luciferin 4-monooxygenase (Photinus pyralis)
- Assay: qHTS profiling assay for firefly luciferase inhibitor/activator using purifed enzyme and Km concentrations of substrates (counterscreen for miR-21 project); further: nearly all actives have a fitted effect of over 55% in size
- Condition details: purified FLuc, luminescence inhibition; series mostly up to 57.5 µM
The campaign covered roughly 360,000 compounds. About 25,000 (6.9%) were called active. Inconclusive results (about 9%) are left out. Calls follow the shape of the dose curve; as a rule, active = well fitted inhibition curve with a large enough effect; inconclusive = small, poorly fitted or top-dose-only effect; inactive = flat fitted curve, though single readings scatter. The sample as a whole holds a higher share of actives than the screen did.
Hi! Could you answer with just one of these? active, inactive

Solved cases below.
{"columns": ["Compound", "Label"],
 "data": [
  ["O=c1c(Cl)c(NC2CC2)cnn1-c1ccccc1", "inactive"],
  ["O=c1c2ccccc2ncn1CCCCOc1ccccc1F", "inactive"],
  ["CC(=O)Nc1nc(N(C)C)nc(N(C)C)n1", "active"]
]}

**Query** How was O=S(=O)(NCCS(=O)(=O)N1CCN(c2ccccc2)CC1)c1ccc(Cl)cc1 classified in this test?
**Result** inactive

**Query** How was O=C(Nn1cnc2ccccc2c1=O)c1ccc([N+](=O)[O-])cc1Cl classified in this test?
**Result** inactive

**Query** How was CCc1nc2c(cnn2-c2ccc(C)cc2)c(=O)n1-c1ccc(C)cc1 classified in this test?
**Result** inactive

**Query** How was O=C(CSc1nnc(COc2ccc(Cl)cc2)n1Cc1ccco1)N1CCNC1=O classified in this test?
**Result** inactive

**Query** How was CCC(=O)Nc1nc(OC)cc(OC)n1 classified in this test?
**Result** inactive

**Query** How was C=CCNc1cnn(-c2ccc(C)cc2)c(=O)c1Cl classified in this test?
**Result** active

**Query** How was O=C(Nn1cnc2ccccc2c1=O)c1ccc(F)cc1Cl classified in this test?
**Result** active

**Query** How was COc1ccc(NC(=O)C2CCC(CNS(=O)(=O)c3csc(C(N)=O)c3)CC2)cc1OC (stereo unspecified) classified in this test?
**Result** inactive
